B1: EEHEE_rd3_0130 (parent)
chain: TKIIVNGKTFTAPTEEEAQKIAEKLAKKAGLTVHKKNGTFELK

# Variants of: B1
# test_summary: folding stability dG (cDNA display proteolysis); higher = more stable
# test_context: PBS, room temperature
measured_parameter: folding stability dG (kcal/mol)
Value expressed in kcal/mol; do not type the unit.

Please report the measured folding stability dG for E41I
1.48

Please report the measured folding stability dG for E23T
0.669
